// data source = a melting point compilation (Tetko et al.; mined from patent text by program, amines drawn as free bases though some values may be those of a salt)

quantity-measured: melting point

Illustrative cases are given below, each with its answer.
O=S1(=O)N=CN(C2CCCCC2)c2ccc(Cl)cc21 :: 209 to 211 °C
CCCCC(Oc1ccc(C#N)cc1C=O)C(=O)OC (stereo not drawn) :: 77 to 79 °C

Input line: May I ask what melting point has been recorded for CC(=O)Nc1ccc(Cn2cnc3c(Cl)ncnc32)cc1 ?
Output line: 240 to 242 °C

---

// reported melting point for each item listed

Input line: May I ask what melting point has been recorded for Clc1nc(-c2ccco2)c2ncn(Cc3ccc(Cl)c(Cl)c3)c2n1 ?
Output line: 191 to 193 °C

Input line: Same question, CS(=O)(=O)C(=C1CN(C(c2ccccc2)c2ccccc2)C1)c1ccccc1 this time
Output line: 210 °C

Input line: Same question, O=c1ccc(-c2cccc(-n3ccnc3)c2)n[nH]1 this time
Output line: 234 to 236 °C

Input line: Same question, CC(O)Cn1cncn1 (stereo unspecified) this time
Output line: 110 to 112 °C

Input line: Same question, C#CC[C@H](c1nc2cc(Cl)ccc2c(=O)n1Nc1ccccc1)N(CCCN)C(=O)c1cc(F)c(F)c(F)c1F this time
Output line: 155 to 158 °C

Input line: Same question, CCCCCCCC(CCCCCC)CCOC(=O)c1ccccc1N=NN1CCOCC1 (stereo unspecified) this time
Output line: 40 to 42 °C

---

quantity-measured: melting point

Illustrative cases are given below, each with its answer.
CN1CCN(c2ccc3c4c(cccc24)C(=O)N(O)C3=O)CC1 :: 326 to 329 °C
O=S(=O)(c1ccc(F)cc1)N1CCOCC1 :: 106 to 107 °C
CCCN1C(=O)N(CCC)C(=O)C2(CC=C3C(CCC4=Cc5c(cnn5-c5ccc(F)cc5)CC43C)O2)C1=O (stereo not drawn) :: 81 to 82 °C
COc1cc(C=CC(=O)OC2C=C(C)C(=O)CC(C)(C)C2O)ccc1O (stereo not drawn) :: 142 °C
Cc1nc(C)c(CO)c(-c2ccc(F)cc2)n1 :: 174 to 176 °C

Input line: May I ask what melting point has been recorded for C=COCCn1cccc1-c1nc(-c2ccc(OC)cc2)c(-c2ccc(OC)cc2)s1 ?
Output line: 81.5 to 84.5 °C

Input line: Same question, COC(=O)c1sc2ccc(N)cc2c1N this time
Output line: 128 to 130 °C

Input line: Same question, C[Si](C)(C)CC1=C[C@@H](c2ccccc2)[C@H]2C(=O)OC(=O)[C@H]2C1 (racemic) this time
Output line: 126 °C

Input line: Same question, COc1ccc(Cn2nc(-c3ccc(C(=O)N4Cc5cccnc5Nc5ccccc54)c(Cl)c3)nc2C)cc1 this time
Output line: 218 to 221 °C

Input line: Same question, COC(=O)C(=C(C)NCC(O)CO)c1ncc([N+](=O)[O-])cc1[N+](=O)[O-] (stereo not drawn) this time
Output line: 128 to 129 °C

Input line: Same question, CCOC(=O)c1c[nH]c(Cc2ccc(OC)cc2)n1 this time
Output line: 119 to 121 °C

---

// reported melting point for each item listed

COc1ccn(-c2nc(C)c(C(=O)NCc3ccc(F)c(F)c3)s2)c(=O)c1 :: 183 to 185 °C

Input line: May I ask what melting point has been recorded for CCOC(=O)C=Cc1cccc(Nc2ccc3nc[nH]c3c2)c1 ?
Output line: 188 to 190 °C

Input line: Same question, C=CCOc1ccc(C2C(=O)Oc3c2cc(C(C)(C)C)cc3C(C)(C)C)cc1 (configuration not stated) this time
Output line: 112 to 114 °C

Input line: Same question, Cc1cn(S(=O)(=O)c2ccccc2)c2ccccc12 this time
Output line: 116 to 120 °C

Input line: Same question, Cc1c(NC(=O)c2ccc(OC[C@@H]3CCCO3)cc2)ccc2cc(CNCC(C)C)[nH]c12 this time
Output line: 159 °C

Input line: Same question, COC(=O)N(CC(=O)O)C(=O)c1cccc2c(C(F)(F)F)c(OC)ccc12 this time
Output line: 148 to 150 °C
